Source listed as patent US4123544A.

- experimentSummary: acute toxicity on intravenous administration to mice
- Assay type: in vivo
- measurementConditions: mouse, in vivo; intravenous, mice
quantityKind: LD50

- molecule: "CC(=O)Oc1ccccc1C(=O)O [Lysine acetylsalicylate, lysine acetylsalicylate, reference compound]"
  reportedValue: "~2000 mg/kg"

----------
- experimentSummary: Solubility in water
- Assay type: physicochemical
- measurementConditions: pH = 3

- molecule: "CC(=O)Oc1ccccc1C(=O)N1CC(O)C[C@H]1C(=O)O (stereo partly drawn) [1-o-acetoxybenzoyl-4-hydroxy-L-proline]"
  solubility: "~50 mg/mL"

----------
- experimentSummary: acute toxicity, oral administration to mice
- measurementConditions: mouse, in vivo, orally
quantityKind: LD50 (mg/kg)

- compound: "CC(=O)Oc1ccccc1C(=O)O [Lysine acetylsalicylate, lysine acetylsalicylate, reference compound]"
  reportedValue: 3000

----------
- experimentSummary: acute toxicity, intraperitoneal administration to mice
- measurementConditions: mouse, in vivo, ip; intraperitoneally, mice; read-out: LD50

- compound: "CC(=O)Oc1ccccc1C(=O)O [Lysine acetylsalicylate, lysine acetylsalicylate, reference compound]"
  LD50: "~3000 mg/kg"

----------
- experimentSummary: acute toxicity, intraperitoneal administration to mice
- measurementConditions: mouse, in vivo, ip

- molecule: "CC(=O)Oc1ccccc1C(=O)N1CC(O)C[C@H]1C(=O)O (stereo partly drawn) [1-o-acetoxybenzoyl-4-hydroxy-L-proline]"
  LD50: "~10000 mg/kg"
